pIC50 data for Src (Homo sapiens, UniProt P12931) follow.
pIC50: −log10 of the molar value.

Reported pIC50 ( COc1cc(Nc2ncnc(-c3cccnc3NCc3ccc(F)cc3)n2)cc(OC)c1OC [Compound 1088] ) = < 5.01

Reported pIC50 ( COc1cc(Nc2ncnc(-n3ncc4ccccc43)n2)cc(OC)c1OC [Compound 240] ) = 4.92 to 5.03

Reported pIC50 ( COc1cc(Nc2ncnc(Nc3ccc(C(N)=O)cc3)n2)cc(OC)c1OC [Compound 33] ) = 5.22 to 6.00

Reported pIC50 ( COC(=O)c1cccc(Nc2ncnc(Nc3cc(-c4ccco4)n[nH]3)n2)c1 [Compound 344] ) = < 4.92

Reported pIC50 ( COc1cc(Nc2ncnc(Nc3cc(-c4ccco4)n[nH]3)n2)cc(OC)c1OC [Compound 308] ) = > 6.01

Reported pIC50 ( COc1cc(Nc2ncnc(N3CCc4ccccc43)n2)cc(OC)c1OC [Compound 184] ) = 5.20 to 5.98

Reported pIC50 ( COc1cc(Nc2ncnc(-n3c(NCc4cccnc4)nc4ccccc43)n2)cc(OC)c1OC [Compound 416] ) = 5.14 to 5.31

Reported pIC50 ( COc1cc(Nc2ncnc(-n3c(NCc4ccc(Cl)cc4)nc4ccccc43)n2)cc(OC)c1OC [Compound 944] ) = < 5.06

* * *

Biological target: Kdr (Homo sapiens, UniProt P35968)
Construct: Kinases are expressed as either kinase domains or full length constructs; made in house
Sequence (P35968 20-1356, species assumed): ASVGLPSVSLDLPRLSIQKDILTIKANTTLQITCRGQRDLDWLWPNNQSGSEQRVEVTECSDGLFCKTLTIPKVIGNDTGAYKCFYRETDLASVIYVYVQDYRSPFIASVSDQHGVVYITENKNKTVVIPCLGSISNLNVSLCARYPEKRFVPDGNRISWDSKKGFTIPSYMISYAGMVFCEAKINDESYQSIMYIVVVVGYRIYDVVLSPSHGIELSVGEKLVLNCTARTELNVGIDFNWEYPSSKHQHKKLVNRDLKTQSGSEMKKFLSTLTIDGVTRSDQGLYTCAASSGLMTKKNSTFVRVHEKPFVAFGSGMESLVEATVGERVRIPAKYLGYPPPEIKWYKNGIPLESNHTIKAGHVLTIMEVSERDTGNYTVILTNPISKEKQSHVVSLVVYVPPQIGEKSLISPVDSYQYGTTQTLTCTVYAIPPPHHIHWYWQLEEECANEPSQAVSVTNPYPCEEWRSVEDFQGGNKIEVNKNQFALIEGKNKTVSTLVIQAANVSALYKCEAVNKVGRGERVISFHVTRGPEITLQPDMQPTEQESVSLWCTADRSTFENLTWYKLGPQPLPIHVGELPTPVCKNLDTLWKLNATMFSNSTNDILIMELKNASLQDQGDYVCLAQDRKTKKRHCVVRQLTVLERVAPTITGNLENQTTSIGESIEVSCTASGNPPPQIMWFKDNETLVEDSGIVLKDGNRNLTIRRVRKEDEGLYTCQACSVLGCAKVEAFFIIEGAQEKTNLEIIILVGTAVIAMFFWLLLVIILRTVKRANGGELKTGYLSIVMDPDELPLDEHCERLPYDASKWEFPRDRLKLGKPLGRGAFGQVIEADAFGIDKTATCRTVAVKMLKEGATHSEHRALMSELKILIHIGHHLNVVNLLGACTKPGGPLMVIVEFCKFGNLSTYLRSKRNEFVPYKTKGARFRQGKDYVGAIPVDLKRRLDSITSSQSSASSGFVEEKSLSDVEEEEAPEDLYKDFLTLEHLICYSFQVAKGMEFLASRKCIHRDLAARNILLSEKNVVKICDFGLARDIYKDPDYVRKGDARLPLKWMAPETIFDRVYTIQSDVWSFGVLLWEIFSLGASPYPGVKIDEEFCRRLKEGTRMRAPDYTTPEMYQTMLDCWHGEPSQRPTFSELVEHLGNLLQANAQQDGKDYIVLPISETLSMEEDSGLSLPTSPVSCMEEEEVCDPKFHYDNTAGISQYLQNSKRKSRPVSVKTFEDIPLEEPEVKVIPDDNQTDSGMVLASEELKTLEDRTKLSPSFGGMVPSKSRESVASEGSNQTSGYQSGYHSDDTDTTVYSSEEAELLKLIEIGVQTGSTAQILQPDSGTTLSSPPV
Experiment: Kinase inhibition assay (33P transfer), Kdr
Type: biochemical
Details: Table 3, class symbols; read-out: KDR-1
pIC50: −log10 of the molar value.
So I've got a bunch of molecules here, and I need their pIC50 values.

Reported pIC50 ( COc1ccc(Nc2ncnc(Nc3cc(Cl)cc(Cl)c3)n2)cc1OC ) = < 4.94

Reported pIC50 ( O=S(=O)(O)c1cccc(Nc2ncnc(Nc3cc(-c4ccco4)[nH]n3)n2)c1 ) = > 6.00

Reported pIC50 ( COc1ccc(Nc2ncnc(N(C)CC(O)c3ccccc3)n2)cc1OC (stereo not drawn) ) = < 4.93

Reported pIC50 ( COc1cc(Nc2ncnc(-c3cccnc3NC3CCc4ccccc43)n2)cc(OC)c1OC (stereo not drawn) ) = 5.29 to 6.07

Reported pIC50 ( c1ccc(Cn2ncc3cc(Nc4ncnc(NCCN5CCCC5)n4)ccc32)cc1 ) = < 4.96

Reported pIC50 ( c1ccc(Nc2ncccc2-c2ncnc(Nc3ccc4[nH]ncc4c3)n2)cc1 ) = > 5.98

Reported pIC50 ( COc1cc(Nc2ncnc(-c3cccnc3Nc3cccc4c3CCCC4)n2)cc(OC)c1OC ) = < 5.03

Reported pIC50 ( COc1ccc(Nc2ncnc(N(C)C3CCCCC3)n2)cc1OC ) = 4.88 to 4.99

Reported pIC50 ( COC(=O)c1cccc(Nc2ncnc(-n3c(NCc4ccccc4)nc4ccccc43)n2)c1 ) = > 6.05

* * *

Target: c-Met (Homo sapiens, UniProt P08581)
Construct: Kinases are expressed as either kinase domains or full length constructs; made in house
Sequence (P08581 25-1390): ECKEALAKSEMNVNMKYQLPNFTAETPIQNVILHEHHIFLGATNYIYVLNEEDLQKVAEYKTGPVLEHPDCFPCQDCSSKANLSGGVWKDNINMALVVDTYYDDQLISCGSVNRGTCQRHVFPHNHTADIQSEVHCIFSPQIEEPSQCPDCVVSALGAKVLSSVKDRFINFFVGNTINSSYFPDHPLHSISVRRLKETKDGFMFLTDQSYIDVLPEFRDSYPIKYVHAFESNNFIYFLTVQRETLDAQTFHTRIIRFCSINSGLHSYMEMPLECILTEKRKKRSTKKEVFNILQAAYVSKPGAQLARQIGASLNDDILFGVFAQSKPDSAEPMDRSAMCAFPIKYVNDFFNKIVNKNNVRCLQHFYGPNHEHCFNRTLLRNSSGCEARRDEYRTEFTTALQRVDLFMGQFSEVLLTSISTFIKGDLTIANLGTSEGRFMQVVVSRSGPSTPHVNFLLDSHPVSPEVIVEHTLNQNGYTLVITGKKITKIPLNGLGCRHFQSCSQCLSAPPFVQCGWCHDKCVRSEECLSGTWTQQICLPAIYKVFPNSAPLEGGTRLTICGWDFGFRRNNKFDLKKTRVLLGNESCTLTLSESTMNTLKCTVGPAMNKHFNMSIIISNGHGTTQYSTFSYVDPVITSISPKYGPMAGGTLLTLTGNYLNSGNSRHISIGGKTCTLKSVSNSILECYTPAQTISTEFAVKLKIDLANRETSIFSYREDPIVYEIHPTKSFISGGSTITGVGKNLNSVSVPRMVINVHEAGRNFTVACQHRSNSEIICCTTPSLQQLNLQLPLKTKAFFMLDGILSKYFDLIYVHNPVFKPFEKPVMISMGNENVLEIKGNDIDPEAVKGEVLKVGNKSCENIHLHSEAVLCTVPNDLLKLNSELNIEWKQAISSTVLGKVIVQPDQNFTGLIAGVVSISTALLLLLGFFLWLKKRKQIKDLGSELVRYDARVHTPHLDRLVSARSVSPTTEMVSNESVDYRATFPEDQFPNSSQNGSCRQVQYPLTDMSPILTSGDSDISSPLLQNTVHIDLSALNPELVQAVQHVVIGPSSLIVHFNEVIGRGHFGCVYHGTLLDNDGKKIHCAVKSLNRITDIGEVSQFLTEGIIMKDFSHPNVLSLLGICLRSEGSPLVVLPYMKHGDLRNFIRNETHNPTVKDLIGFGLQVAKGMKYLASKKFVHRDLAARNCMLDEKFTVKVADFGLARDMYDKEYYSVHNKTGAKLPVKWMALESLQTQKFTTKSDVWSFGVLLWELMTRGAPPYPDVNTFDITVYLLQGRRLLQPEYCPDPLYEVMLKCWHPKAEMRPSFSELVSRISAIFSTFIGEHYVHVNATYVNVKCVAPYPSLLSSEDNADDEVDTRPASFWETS
Experiment: Kinase inhibition assay (33P transfer), c-Met
Type: biochemical
Conditions: Table 2, kinase inhibition class; read-out: Met-1
Experimental: The inhibitor compounds described herein are screened in the following manner. […] Kinases are expressed as either kinase domains or full length constructs fused to glutathione S-transferase (GST) or polyHistidine tagged fusion proteins in either E. colior Baculovirus-High Five expression systems. […] Kinase activity and inhibition are measured essentially by established protocols (Braunwalder et al., 1996). […]
value type: IC50

Reported IC50 ( CCOC(=O)C(Nc1nc2ccccc2n1-c1ncnc(Nc2cc(OC)c(OC)c(OC)c2)n1)c1ccccc1 (centres unmarked) ) = 6.3 to 8.1 µM

Reported IC50 ( COc1ccc(Nc2ncnc(N(C)c3cccc(Cl)c3)n2)cc1OC ) = 1.08 to 6.45 µM

Reported IC50 ( COc1cc(Nc2ncnc(Nc3ccc(O)cc3)n2)cc(OC)c1OC ) = > 12.2 µM

Reported IC50 ( Nc1nc2ccccc2n1-c1ncnc(Nc2ccc3c(c2)OCO3)n1 ) = 1.15 to 6.91 µM

Reported IC50 ( COc1cc(Nc2ncnc(-n3ncc(-c4ccccc4)c3N)n2)cc(OC)c1OC ) = 5.72 to 8.34 µM

Reported IC50 ( COc1cc(Nc2ncnc(NCc3ccccc3)n2)cc(OC)c1OC ) = > 12.2 µM

Reported IC50 ( COc1cc(Nc2ncnc(-n3c(NC(C)c4ccc(F)cc4)nc4ccccc43)n2)cc(OC)c1OC (centres unmarked) ) = > 8.73 µM

Reported IC50 ( O=c1[nH]c2ccccc2n1-c1ncnc(Nc2cnc3ccccc3c2)n1 ) = > 12.7 µM
